Values were extracted from patent US20160297884A1.

Quick reference: kon of the listed items.
Test system: T1, Human BCMA (human, UniProt Q02223 1-54, limits assumed)
T1 construct: Soluble analyte in SPR; construct not described; also called huBCMA; B-cell maturation antigen
T1 sequence (looked up): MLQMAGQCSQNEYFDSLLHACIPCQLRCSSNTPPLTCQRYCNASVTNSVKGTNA
Experiment summary: SPR, IgG immobilised, 37 C
Dear colleague, please return just the value in M⁻¹ s⁻¹, with no unit written.

Consider the following illustrative entries.
Give the reported value of kon for this record: L3.PY/L3.KY/H2.HA (antibody, V domains shown, IgG) VH: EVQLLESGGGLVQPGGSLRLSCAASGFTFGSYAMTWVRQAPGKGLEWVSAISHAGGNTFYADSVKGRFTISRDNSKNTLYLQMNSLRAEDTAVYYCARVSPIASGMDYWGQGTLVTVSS VL: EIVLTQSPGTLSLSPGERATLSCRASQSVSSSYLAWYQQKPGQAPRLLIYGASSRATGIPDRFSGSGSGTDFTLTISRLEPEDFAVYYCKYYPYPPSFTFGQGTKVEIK
3.29e+06

Give kon for L3.PY/L1.AH/H2.LT (antibody, V domains shown, IgG) VH: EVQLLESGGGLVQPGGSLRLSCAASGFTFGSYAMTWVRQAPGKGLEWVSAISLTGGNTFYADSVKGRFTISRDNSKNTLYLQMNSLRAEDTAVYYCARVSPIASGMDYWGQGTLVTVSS VL: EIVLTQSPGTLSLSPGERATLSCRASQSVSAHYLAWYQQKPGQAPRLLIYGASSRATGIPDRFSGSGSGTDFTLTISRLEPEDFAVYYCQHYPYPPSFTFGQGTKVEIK
3.16e+06

Then there is this binder:
Read the entry L3.PY/L1.PS/H2.QR (antibody, V domains shown, IgG) VH: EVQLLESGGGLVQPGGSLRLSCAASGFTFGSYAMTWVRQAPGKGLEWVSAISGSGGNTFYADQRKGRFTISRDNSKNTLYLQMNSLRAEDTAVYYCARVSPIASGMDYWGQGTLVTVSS VL: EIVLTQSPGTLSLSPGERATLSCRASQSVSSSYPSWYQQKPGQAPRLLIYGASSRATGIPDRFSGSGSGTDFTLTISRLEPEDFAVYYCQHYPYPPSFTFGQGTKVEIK and write its reported kon.
3.97e+06
